The binders listed here are annotated with their pKd.
target: T1, human single-chain CD1a-β2M recombinant protein (Human B2M-CD1a ECD-Avi-His6) (human); assay: SPR (Biacore), IgG; antigen taken as human CD1a
T1 construct: Biotinylated in the HTRF, phage selection and Gyrolab assays; also called human CD1a; CD1a protein
T1 sequence (chain, as listed by the source limits assumed): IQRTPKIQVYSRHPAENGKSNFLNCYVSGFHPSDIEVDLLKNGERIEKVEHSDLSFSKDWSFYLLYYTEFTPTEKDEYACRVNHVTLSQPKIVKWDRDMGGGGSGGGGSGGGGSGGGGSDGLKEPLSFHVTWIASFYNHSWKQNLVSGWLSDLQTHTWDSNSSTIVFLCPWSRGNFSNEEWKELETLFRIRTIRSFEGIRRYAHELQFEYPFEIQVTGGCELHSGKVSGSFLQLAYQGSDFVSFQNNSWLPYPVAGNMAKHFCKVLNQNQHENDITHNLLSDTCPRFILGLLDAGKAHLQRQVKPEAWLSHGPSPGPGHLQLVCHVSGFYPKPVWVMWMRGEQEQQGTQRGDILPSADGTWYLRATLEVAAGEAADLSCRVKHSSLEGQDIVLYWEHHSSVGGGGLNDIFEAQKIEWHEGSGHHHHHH
pKd: −log10 of the molar value.
Experimental Endpoint: pKd

>>> recorded_result("Ab572 (antibody, human IgG1, kappa, V domains shown, Optimized variant of Ab138; human IgG1 effector null / kappa; HC with or without terminal lysine) VH: EVQLVESGGGLVQPGGSLRLSCAASGFTFTDHYMTWVRQAPGKGLEWVAFIRNKAGGYTTESNPAVKGRFTISRDNAKNSLYLQMNSLRAEDTAVYYCARETTGIPTGWFAYWGQGTLVTVSS VL: DIQMTQSPSSLSASVGDRVTITCLASEDIYFDLAWYQQKPGKAPKLLIYGGDRLKEGVPSRFSGSGSGTDYTLTISSLQPEDFATYYCQQSESYPYTFGQGTKLEIKR")
9.41
>>> recorded_result("Ab491 (antibody, human IgG1, kappa, V domains shown, Optimized variant of Ab138; human IgG1 effector null / kappa; HC with or without terminal lysine) VH: EVQLVESGGGLVQPGGSLRLSCAASGFTFTDHYMTWVRQAPGKGLEWVAFIRNKANGYTTESNPAVKGRFTISRDNAKNSLYLQMNSLRAEDTAVYYCARETTGIPTGWFAYWGQGTLVTVSS VL: DIQMTQSPSSLSASVGDRVTITCLASEDIYFDLAWYQQKPGKAPKLLIYGGDRLKEGVPSRFSGSGSGTDYTLTISSLQPEDFATYYCQQSYSYPYTFGQGTKLEIKR")
9.21
>>> recorded_result("Ab560 (antibody, human IgG1, kappa, V domains shown, Optimized variant of Ab138; human IgG1 effector null / kappa; HC with or without terminal lysine) VH: EVQLVESGGGLVQPGGSLRLSCAASGFTFTDHYMHWVRQAPGKGLEWVAFIRNKAGGYTTESNPAVKGRFTISRDNAKNSLYLQMNSLRAEDTAVYYCARETTTIPTGWFAYWGQGTLVTVSS VL: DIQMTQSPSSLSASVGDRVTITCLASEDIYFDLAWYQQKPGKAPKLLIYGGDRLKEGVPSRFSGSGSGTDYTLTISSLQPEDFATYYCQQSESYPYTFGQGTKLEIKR")
9.46
>>> recorded_result("Ab514 (antibody, human IgG1, kappa, V domains shown, Optimized variant of Ab138; human IgG1 effector null / kappa; HC with or without terminal lysine) VH: EVQLVESGGGLVQPGGSLRLSCAASGFTFTDHYMHWVRQAPGKGLEWVAFIRNSAGGYTTESNPAVKGRFTISRDNAKNSLYLQMNSLRAEDTAVYYCARETTRIPTGWFAYWGQGTLVTVSS VL: DIQMTQSPSSLSASVGDRVTITCLASEDIYFDLAWYQQKPGKAPKLLIYGASTPKDGVPSRFSGSGSGTDYTLTISSLQPEDFATYYCQQSEKYPYTFGQGTKLEIKR")
9.55
>>> recorded_result("Ab599 (antibody, human IgG1, kappa, V domains shown, Optimized variant of Ab138; human IgG1 effector null / kappa; HC with or without terminal lysine) VH: EVQLVESGGGLVQPGGSLRLSCAASGFTFTDHYMHWVRQAPGKGLEWVGHISGSAGGYTTESNPAVKGRFTISRDNAKNSLYLQMNSLRAEDTAVYYCARETTRIPTGWFAYWGQGTLVTVSS VL: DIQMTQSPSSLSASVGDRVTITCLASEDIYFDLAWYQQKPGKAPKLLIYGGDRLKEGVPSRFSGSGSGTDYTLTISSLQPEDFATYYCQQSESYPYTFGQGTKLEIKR")
9.28
>>> recorded_result("Ab660 (antibody, human IgG1, kappa, V domains shown, Optimized variant of Ab138; human IgG1 effector null / kappa; HC with or without terminal lysine) VH: EVQLVESGGGLVQPGGSLRLSCAASGFTFTDHYMHWVRQAPGKGLEWVGHIRNAAGGYTTESNPAVKGRFTISRDNAKNSLYLQMNSLRAEDTAVYYCARETTRIPTGWFAYWGQGTLVTVSS VL: DIQMTQSPSSLSASVGDRVTITCLASEDIYFDLAWYQQKPGKAPKLLIYGASTPKDGVPSRFSGSGSGTDYTLTISSLQPEDFATYYCQQSEKYPYTFGQGTKLEIKR")
9.24
>>> recorded_result("Ab623 (antibody, human IgG1, kappa, V domains shown, Optimized variant of Ab138; human IgG1 effector null / kappa; HC with or without terminal lysine) VH: EVQLVESGGGLVQPGGSLRLSCAASGFTFEDHYMHWVRQAPGKGLEWVAHTRDKAGGYTTESNPAVKGRFTISRDNAKNSLYLQMNSLRAEDTAVYYCARETTRIPTGWFAYWGQGTLVTVSS VL: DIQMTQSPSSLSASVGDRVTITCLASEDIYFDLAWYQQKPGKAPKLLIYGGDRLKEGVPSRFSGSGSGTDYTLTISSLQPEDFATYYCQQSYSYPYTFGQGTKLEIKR")
9.25
>>> recorded_result("Ab555 (antibody, human IgG1, kappa, V domains shown, Optimized variant of Ab138; human IgG1 effector null / kappa; HC with or without terminal lysine) VH: EVQLVESGGGLVQPGGSLRLSCAASGFTFTDHYMHWVRQAPGKGLEWVAFIRNSAGGYTTESNPAVKGRFTISRDNAKNSLYLQMNSLRAEDTAVYYCARETTRIPTGWFAYWGQGTLVTVSS VL: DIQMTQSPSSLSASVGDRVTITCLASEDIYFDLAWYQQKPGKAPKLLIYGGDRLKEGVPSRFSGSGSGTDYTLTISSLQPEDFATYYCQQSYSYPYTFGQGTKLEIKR")
9.57
>>> recorded_result("Ab556 (antibody, human IgG1, kappa, V domains shown, Optimized variant of Ab138; human IgG1 effector null / kappa; HC with or without terminal lysine) VH: EVQLVESGGGLVQPGGSLRLSCAASGFTFTDHYMHWVRQAPGKGLEWVAFIRNSAGGYTTESNPAVKGRFTISRDNAKNSLYLQMNSLRAEDTAVYYCARETTRIPTGWFAYWGQGTLVTVSS VL: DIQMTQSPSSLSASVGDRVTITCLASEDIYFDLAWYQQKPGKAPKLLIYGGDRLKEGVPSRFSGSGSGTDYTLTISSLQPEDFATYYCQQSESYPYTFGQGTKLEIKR")
10.00
>>> recorded_result("Ab138 (antibody, human IgG1, kappa, V domains shown, Humanized variant of chimeric Ab40; human IgG1 (L234A/L235A/G237A, effector function null) / human kappa; heavy chain can be prepared with or without the terminal lysine; Tb-labeled in the HTRF assay; also called humanized anti-CD1a antibody Ab138; parental Ab138) VH: EVQLVESGGGLVQPGGSLRLSCAASGFTFTDFYMNWVRQAPGKGLEWVAFIRNKANGYTTESNPSVKGRFTISRDNAKNSLYLQMNSLRAEDTAVYYCARETTGIPTGWFAYWGQGTLVTVSS VL: DIQMTQSPSSLSASVGDRVTITCLASEDISNDLAWYQQKPGKAPKLLIYGANRLKDGVPSRFSGSGSGTDYTLTISSLQPEDFATYYCQQSYKYPYTFGQGTKLEIKR")
8.41
>>> recorded_result("Ab492 (antibody, human IgG1, kappa, V domains shown, Optimized variant of Ab138; human IgG1 effector null / kappa; HC with or without terminal lysine) VH: EVQLVESGGGLVQPGGSLRLSCAASGFTFTDHYMTWVRQAPGKGLEWVAFIRNKANGYTTESNPAVKGRFTISRDNAKNSLYLQMNSLRAEDTAVYYCARETTGIPTGWFAYWGQGTLVTVSS VL: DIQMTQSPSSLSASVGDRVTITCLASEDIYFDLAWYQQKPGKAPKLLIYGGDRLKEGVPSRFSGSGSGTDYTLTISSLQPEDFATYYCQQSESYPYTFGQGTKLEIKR")
9.11
